Source: patent US20110256127A1

Molecular target: T1, LRP6.E3-E4-Fc (human)
T1 construct: also called LRP6.E3-4-Fc
T1 sequence (chain, as listed by the source limits assumed): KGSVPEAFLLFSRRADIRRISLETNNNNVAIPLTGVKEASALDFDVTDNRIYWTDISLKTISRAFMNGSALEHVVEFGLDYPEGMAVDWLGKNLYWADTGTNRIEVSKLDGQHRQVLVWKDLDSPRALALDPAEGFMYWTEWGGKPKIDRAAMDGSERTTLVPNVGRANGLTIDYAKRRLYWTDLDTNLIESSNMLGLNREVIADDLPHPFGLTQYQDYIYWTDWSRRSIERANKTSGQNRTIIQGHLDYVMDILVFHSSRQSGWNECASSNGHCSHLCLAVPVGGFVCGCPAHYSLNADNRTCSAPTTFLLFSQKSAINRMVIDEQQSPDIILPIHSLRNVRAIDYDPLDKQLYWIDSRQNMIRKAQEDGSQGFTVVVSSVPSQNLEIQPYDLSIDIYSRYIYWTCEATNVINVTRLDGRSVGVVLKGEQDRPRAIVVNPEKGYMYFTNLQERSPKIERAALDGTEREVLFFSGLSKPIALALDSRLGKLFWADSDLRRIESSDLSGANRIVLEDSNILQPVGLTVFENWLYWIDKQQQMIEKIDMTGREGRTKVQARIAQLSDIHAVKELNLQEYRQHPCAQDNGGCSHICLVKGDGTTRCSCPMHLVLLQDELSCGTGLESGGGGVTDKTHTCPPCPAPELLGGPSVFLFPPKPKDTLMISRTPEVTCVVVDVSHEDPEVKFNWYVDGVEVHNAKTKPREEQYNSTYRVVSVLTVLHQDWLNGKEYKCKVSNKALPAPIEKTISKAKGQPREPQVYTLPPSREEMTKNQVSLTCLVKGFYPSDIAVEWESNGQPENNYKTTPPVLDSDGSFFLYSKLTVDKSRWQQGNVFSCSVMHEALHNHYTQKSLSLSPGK
Assay: ELISA
metric name: binding result

binder: YW211.11 antibody (antibody, V domains shown) VH: EVQLVESGGGLVQPGGSLRLSCAASGFTFTNYDIHWVRQAPGKGLEWVASIYPAGGDTDYADSVKGRFTISADTSKNTAYLQMNSLRAEDTAVYYCARSPGWALRGAMDYWGQGTLVTVSS VL: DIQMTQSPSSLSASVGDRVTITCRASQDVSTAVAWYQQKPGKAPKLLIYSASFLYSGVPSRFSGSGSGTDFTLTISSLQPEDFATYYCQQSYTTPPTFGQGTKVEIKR
value: binds
//
binder: YW211.33 antibody (antibody, V domains shown) VH: EVQLVESGGGLVQPGGSLRLSCAASGFTFSGSSISWVRQAPGKGLEWVGVISPSSGATYYADSVKGRFTISADTSKNTAYLQMNSLRAEDTAVYYCARWPAGAFLGYYGMDYWGQGTLVTVSS VL: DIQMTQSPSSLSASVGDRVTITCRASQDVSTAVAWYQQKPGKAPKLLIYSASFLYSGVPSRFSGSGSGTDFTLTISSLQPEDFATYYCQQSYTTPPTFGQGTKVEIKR
value: binds
//
binder: YW211.08 antibody (antibody, V domains shown) VH: EVQLVESGGGLVQPGGSLRLSCAASGFTFTDYWIHWVRQAPGKGLEWVAGISPDGGSTYYADSVKGRFTISADTSKNTAYLQMNSLRAEDTAVYYCARWSYISRYFSSVMDYWGQGTLVTVSS VL: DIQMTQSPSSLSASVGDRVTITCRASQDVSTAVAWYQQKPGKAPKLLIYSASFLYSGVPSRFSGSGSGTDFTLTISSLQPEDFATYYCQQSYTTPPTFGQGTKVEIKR
value: binds
